Tested system: Acetylcholinesterase (Homo sapiens) (UniProt P22303)
Sequence (P22303 whole entry, looked up): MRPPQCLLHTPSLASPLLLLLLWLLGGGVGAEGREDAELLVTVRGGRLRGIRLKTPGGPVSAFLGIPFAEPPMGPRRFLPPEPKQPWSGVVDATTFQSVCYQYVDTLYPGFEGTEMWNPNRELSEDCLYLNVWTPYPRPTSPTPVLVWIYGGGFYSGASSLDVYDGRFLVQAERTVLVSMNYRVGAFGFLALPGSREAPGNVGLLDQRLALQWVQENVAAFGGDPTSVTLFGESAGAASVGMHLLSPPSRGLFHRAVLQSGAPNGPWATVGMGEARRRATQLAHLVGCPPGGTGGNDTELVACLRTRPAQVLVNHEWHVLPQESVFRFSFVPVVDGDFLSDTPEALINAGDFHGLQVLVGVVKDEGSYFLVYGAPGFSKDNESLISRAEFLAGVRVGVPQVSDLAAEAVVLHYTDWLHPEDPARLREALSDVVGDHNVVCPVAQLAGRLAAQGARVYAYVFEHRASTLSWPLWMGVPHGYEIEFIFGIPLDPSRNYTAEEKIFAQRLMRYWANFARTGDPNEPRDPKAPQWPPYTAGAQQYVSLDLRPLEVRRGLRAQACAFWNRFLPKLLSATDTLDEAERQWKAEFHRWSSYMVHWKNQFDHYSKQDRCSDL
Protocol details: Acetylcholinesterase (AChE) small molecule antagonists: enzyme-based qHTS assay (AID 1347397); also: nearly all actives have a fitted effect of over 55% in size
Run parameters: AChE enzyme activity inhibition; series mostly up to 115 µM
The source made the active and inactive calls. Calls follow the shape of the full dose curve.
Permitted responses: T = active, F = inactive

1. CCC(=O)OCc1ccc(OC)cc1 | F
2. C[C@@H](O)[C@H]1C(=O)N2C(C(=O)O)=C([C@H]3CCCO3)S[C@H]12 | F
3. COc1cc2c(cc1OC)C(=O)CC2 | F

INPUT: Kindly provide the recorded test outcome for the following compound: CCCCCc1ccco1
OUTPUT: F

INPUT: Kindly provide the recorded test outcome for the following compound: CN[C@H]1CC[C@@H](c2ccc(Cl)c(Cl)c2)c2ccccc21
OUTPUT: F

INPUT: Kindly provide the recorded test outcome for the following compound: Brc1cc(-c2ccc(Br)c(Br)c2Br)cc(Br)c1Br
OUTPUT: F

INPUT: Kindly provide the recorded test outcome for the following compound: Cc1cscn1
OUTPUT: F

INPUT: Kindly provide the recorded test outcome for the following compound: O=C(N[C@H](CO)[C@H](O)c1ccc([N+](=O)[O-])cc1)C(Cl)Cl
OUTPUT: F

INPUT: Kindly provide the recorded test outcome for the following compound: O=C1c2ccccc2C(=O)c2c(Cl)cccc21
OUTPUT: F

* * *

Protocol details: qHTS assay to identify small molecule antagonists of the estrogen receptor alpha (ER-alpha) signaling pathway - cell viability counter screen (AID 743074);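 also: HEK293 cells carrying ER-alpha-UAS-bla reporter stimulated with 17beta-estradiol; nearly all actives have a fitted effect of over 45% in size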
Run parameters: ERalpha-bla HEK293 viability, CellTiter-Glo luminescence, 18 h; series mostly up to 69.4 µM
Records with an inconclusive call do not appear. Calls of active or inactive are those of the source. Calls follow the shape of the full dose curve.
Permitted responses: 1 = active, 0 = inactive

Example entries begin here.
1) CC(=O)O[C@H]1C[C@H](O[C@H]2[C@@H](O)C[C@H](O[C@H]3[C@@H](O)C[C@H](OC4CC[C@@]5(C)C(CC[C@@H]6[C@@H]5CC[C@]5(C)[C@@H](C7=CC(=O)OC7)[C@@H](O)C[C@]65O)C4)O[C@@H]3C)O[C@@H]2C)O[C@H](C)[C@H]1O[C@@H]1O[C@H](CO)[C@@H](O)[C@H](O)[C@H]1O (stereo partly drawn) | 1
2) C#C[C@]1(OC(=O)CCCCCC)CC[C@H]2[C@@H]3CCC4=CC(=O)CC[C@@H]4[C@H]3CC[C@@]21C | 1

We next turn to a different compound, shown below.
INPUT: Kindly provide the recorded test outcome for the following compound: CCC(=O)O[C@H]1[C@@H](N2CCCCC2)C[C@H]2[C@@H]3CC[C@H]4C[C@H](OC(C)=O)[C@@H](N5CCCCC5)C[C@]4(C)[C@H]3CC[C@@]21C
OUTPUT: 0

* * *

Tested system: Acetylcholinesterase (Homo sapiens)
Protocol details: Acetylcholinesterase (AChE) small molecule antagonists: fluorescence cell-based qHTS assay (AID 1347398); also: nearly all actives have a fitted effect of over 50% in size
Run parameters: SH-SY5Y cells; AChE activity; series mostly up to 115 µM
Results filed as inconclusive are left out. Calls of active or inactive are those of the source. Calls follow the shape of the full dose curve.
Permitted responses: active, inactive

1) CC1(C)CC(O)CC(C)(C)N1[O] | inactive
2) CCN(C(=O)N(CC)c1ccccc1)c1ccccc1 | inactive
3) COc1ccc(C(=O)Nc2nc3ccccc3c(NCc3ccccc3)c2C#N)cc1 | inactive

INPUT: Kindly provide the recorded test outcome for the following compound: CCCCNC1CC(C)(C)NC(C)(C)C1
OUTPUT: inactive

INPUT: Kindly provide the recorded test outcome for the following compound: CCOC(=O)c1ncn2c1CN(C)C(=O)c1cc(F)ccc1-2
OUTPUT: inactive

INPUT: Kindly provide the recorded test outcome for the following compound: [Ca+2]
OUTPUT: inactive
